biological target: LC3A (mouse, UniProt Q91VR7 1-121); test: ITC
Observation type: Kd

response.value for ERDEEYGYECLDGKDCAS [GABAAR γ2 subunit GIM (GABARAP interacting motif, 398–415)] (field: Kd) = > 300 µM
